// reported Kd for each item listed
subject-of-test: Human DR5 (Homo sapiens, UniProt O14763)
procedure-text: Binding affinity of antibody to human DR5 (BIAcore, CM5 chip)
experimental-setup: equilibrium dissociation constant, Human DR5
Quick note: give the figure in pM, leave out the unit.

{"molecule": "DA35: humanized or deimmunized variant of parental clone D0; CDRs SEQ ID NO 1, 2, 7 / 4, 10, 13 (antibody, V domains shown) VH: AVTLDESGGGLQTPGGGLSLVCKGSGFTFSSFNMLWVRQAPGKGLEWVAGIGKSDRYTGYGSAVKGRATISRDDGQSTARLQMNSLRAEDTAVYYCVKDAGSGCGSGGWTGACIDTWGHGTEVIVSS VL: LTQPSSVSANLGGTVEITCSGGDSYAGSYYYGWYQQKAPGSAPVTVIYNNNNRPSNIPSRFSGSTSGSTATLTITGVQAEDEATYFCGSRDSSYVGIFGAGTTLTVL", "quantity-measured": "Kd", "recorded-result": 80.1}
{"molecule": "DA21: humanized or deimmunized variant of parental clone D0; CDRs SEQ ID NO 1, 2, 7 / 4, 10, 16 (antibody, V domains shown) VH: EVQLVESGGGLVQPGGSLRLSCAASGFTFSSFNMLWVRQAPGKGLEWVAGIGKSDRYTGYGSAVKGRFTISRDDSKSTVYLQMNSLRAEDTAVYYCVRDAGSGCGSGGWTGACIDTWGQGTLVTVSS VL: DIQMTQSPSSLSASVGDRVTITCSGGDSYAGSYYYGWYQQKPGKAPKTLIYNNNNRPSGVPSRFSGSRSGTDFTLTISSLQPEDFATYYCGSRDSSGAGGFGQGTKVEIK", "quantity-measured": "Kd", "recorded-result": 6.43}
{"molecule": "DA12: humanized or deimmunized variant of parental clone D0; CDRs SEQ ID NO 1, 2, 7 / 4, 11, 13 (antibody, V domains shown) VH: EVQLVESGGGLVQPGGSLRLSCAASGFTFSSFNMLWVRQAPGKGLEWVAGIGKSDRYTGYGSAVKGRFTISRDTSKNTAYLQMNSLRAEDTAVYYCSRDAGSGCGSGGWTGACIDTWGQGTLVTVSS VL: DIQMTQSPSSLSASVGDRVTITCSGGDSYAGSYYYGWYQQKPGKAPKTLIYNNNNLMPGVPSRFSGSRSGTDFTLTISSLQPEDFATYYCGSRDSSYVGIFGQGTKVEIK", "quantity-measured": "Kd", "recorded-result": 12.7}

Then there is this molecule:
Incoming: Supply recorded Kd for DA25: humanized or deimmunized variant of parental clone D0; CDRs SEQ ID NO 1, 2, 7 / 4, 10, 13 (antibody, V domains shown) VH: AVTLDESGGGLQTPGGGLSLVCKGSGFTFSSFNMLWVRQAPGKGLEWVAGIGKSDRYTGYGSAVKGRATISRDDGQSTVYLQMNSLRAEDTGTYYCVKDAGSGCGSGGWTGACIDTWGHGTEVIVSS VL: LTQPSSVSANLGGTVEITCSGGDSYAGSYYYGWYQQKAPGSAPVTVIYNNNNRPSNIPSRFSGSTSGSTATLTITGVQAEDEAVYFCGSRDSSYVGIFGAGTTLTVL here.
Outgoing: 1.62

Each recorded value in this set is attributed to patent US11840574B2.
